These data points were gathered from patent US7579356B2.

biological target: Lyn kinase (human) (Homo sapiens); construct: purchased Upstate Biotechnology, Lake Placid, N.Y; assay: Lyn Kinase Assay; type: biochemical; conditions: test concentration of 2 μM
Sequence (P07948 whole entry): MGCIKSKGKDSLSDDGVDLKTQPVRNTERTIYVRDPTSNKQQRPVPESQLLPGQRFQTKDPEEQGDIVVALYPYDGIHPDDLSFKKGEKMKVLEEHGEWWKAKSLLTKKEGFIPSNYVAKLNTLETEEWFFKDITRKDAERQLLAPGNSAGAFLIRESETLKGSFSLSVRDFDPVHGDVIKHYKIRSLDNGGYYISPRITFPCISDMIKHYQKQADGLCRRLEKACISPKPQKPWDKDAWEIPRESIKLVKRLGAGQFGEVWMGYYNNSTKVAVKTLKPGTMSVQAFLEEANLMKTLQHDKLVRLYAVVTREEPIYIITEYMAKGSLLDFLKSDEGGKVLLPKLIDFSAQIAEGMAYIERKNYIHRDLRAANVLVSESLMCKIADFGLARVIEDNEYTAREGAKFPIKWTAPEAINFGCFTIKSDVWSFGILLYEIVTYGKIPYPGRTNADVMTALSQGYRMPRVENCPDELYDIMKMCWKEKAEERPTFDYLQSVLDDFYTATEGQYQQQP
Experimental Readout: inhibition at 2 µM (%)
Numbers only here, please. The scale is %.

| Compound | Tested On | Unit Symbol | inhibition at 2 µM |
| --- | --- | --- | --- |
| COc1cc(N2C(=O)Nc3c(C(=O)O)sc4ncnc2c34)cc(OC)c1OC [Cpd 42] | Lyn kinase (human) (Homo sapiens) | % | 24 |
| O=C(Nc1ccc(CN2CCOCC2)cc1)c1sc2ncnc3c2c1NC(=O)N3c1ccc(OCc2ccccn2)c(Cl)c1 [Cpd 52] | Lyn kinase (human) (Homo sapiens) | % | 16.2 |
| O=C1Nc2csc3ncnc(c23)N1c1ccc2c(ccn2Cc2cccc(F)c2)c1 [Cpd 152] | Lyn kinase (human) (Homo sapiens) | % | 7 |
| O=C(Nc1ccc(CN2CCOCC2)cc1)c1sc2ncnc3c2c1NC(=O)N3c1ccc(Oc2ccccc2)cc1 [Cpd 97] | Lyn kinase (human) (Homo sapiens) | % | 36.5 |
| O=C(Nc1ccc(CN2CCOCC2)cc1)c1sc2ncnc3c2c1NC(=O)N3c1ccc(Oc2cccc(F)c2)cc1 [Cpd 134] | Lyn kinase (human) (Homo sapiens) | % | 48 |
| O=C(Nc1ccc(CN2CCOCC2)cc1)c1sc2ncnc3c2c1NC(=O)N3c1ccc(N2CCOCC2)cc1 [Cpd 123] | Lyn kinase (human) (Homo sapiens) | % | 55 |

Qu. For the compound shown here, COc1cc(NC(=O)c2sc3ncnc4c3c2NC(=O)N4c2ccc(Oc3ccccc3)cc2)ccc1OCCN1CCOCC1 [Cpd 167] , give the reported inhibition at 2 µM.
Ans. 51

###

Parameter: log10 of IC50. Scope: all listed entries.
molecular target: EGFR (Homo sapiens, UniProt P00533); construct: The intracellular portion of EGFR started at nucleotide 2189 (corresponding to amino acid 667) and ended at the termination codon; test: EGFR Kinase Assay; details: GST-EGFR, ATP 5 μM
Sequence (P00533 669-1210 limits assumed): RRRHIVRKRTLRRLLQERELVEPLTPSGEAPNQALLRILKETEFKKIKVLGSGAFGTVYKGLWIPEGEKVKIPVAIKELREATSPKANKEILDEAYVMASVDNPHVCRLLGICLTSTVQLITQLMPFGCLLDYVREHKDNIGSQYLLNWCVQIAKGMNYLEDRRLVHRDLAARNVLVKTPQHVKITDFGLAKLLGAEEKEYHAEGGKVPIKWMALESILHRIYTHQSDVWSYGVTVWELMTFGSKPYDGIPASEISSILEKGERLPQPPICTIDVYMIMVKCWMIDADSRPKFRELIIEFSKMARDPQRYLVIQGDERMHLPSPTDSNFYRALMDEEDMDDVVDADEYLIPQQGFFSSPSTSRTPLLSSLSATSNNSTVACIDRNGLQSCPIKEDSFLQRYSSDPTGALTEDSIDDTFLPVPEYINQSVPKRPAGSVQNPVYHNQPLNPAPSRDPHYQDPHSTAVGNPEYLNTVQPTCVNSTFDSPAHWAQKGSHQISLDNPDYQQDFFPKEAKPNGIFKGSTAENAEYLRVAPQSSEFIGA
A difference of one corresponds to tenfold IC50; all values are log10 with IC50 in nM.

| Compound Structure String | Reported Value |
| --- | --- |
| Cc1ccc(N2C(=O)Nc3c(C(=O)Nc4ccc(CN5CCOCC5)cc4)sc4ncnc2c34)cc1Br | 1.63 |

Qu. For the molecule shown here, "O=C(Nc1ccc(CN2CCOCC2)c(F)c1)c1sc2ncnc3c2c1NC(=O)N3c1ccc(Oc2ccccc2)cc1" , give the reported log10 of IC50.
Ans. 1.54

Qu. For the molecule shown here, "Cc1ccc(Oc2ccc(N3C(=O)Nc4c(C(=O)Nc5ccc(CN6CCOCC6)cc5)sc5ncnc3c45)cc2Cl)cn1" , give the reported log10 of IC50.
Ans. 2.19

Qu. For the molecule shown here, "CN1CCN(Cc2ccc(NC(=O)c3sc4ncnc5c4c3NC(=O)N5c3ccc(OCc4ccccn4)c(Cl)c3)cc2)CC1" , give the reported log10 of IC50.
Ans. 2.05

Qu. For the molecule shown here, "O=C(Nc1ccc(CN2CCCCC2)cc1)c1sc2ncnc3c2c1NC(=O)N3c1ccccc1Cl" , give the reported log10 of IC50.
Ans. 2.23

###

system: BT474 breast carcinoma; assay: Cell Proliferation Inhibition Assay, BT474 (14C-thymidine); type: cell-based; conditions: Homo sapiens, BT-474, C14 method
Parameter: IC50. Scope: all listed entries.

| Compound Structure String | Tested On | Reported Value |
| --- | --- | --- |
| COc1cc(NC(=O)c2sc3ncnc4c3c2NC(=O)N4c2cccc(Br)c2)ccc1OCCN1CCCCC1 | BT474 breast carcinoma | ≥ 10 µM |

Qu. For the compound shown here, "O=C(Nc1ccc(NCCCN2CCOCC2)nc1)c1sc2ncnc3c2c1NC(=O)N3c1cccc(Br)c1" , give the reported IC50.
Ans. ≥ 10 µM

Qu. For the compound shown here, "O=C(O)c1sc2ncnc3c2c1NC(=O)N3c1ccc(OCc2ccccn2)c(Cl)c1" , give the reported IC50.
Ans. ≥ 100 µM

Qu. For the compound shown here, "COc1ccc(NC(=O)c2sc3ncnc4c3c2NC(=O)N4c2ccc(OCc3ccccn3)c(Cl)c2)cc1OC" , give the reported IC50.
Ans. ≥ 10 µM

Qu. For the compound shown here, "O=C(Nc1ccc(CN2CCOCC2)cc1)c1sc2ncnc3c2c1NC(=O)N3c1cccc(Br)c1" , give the reported IC50.
Ans. ≥ 100 µM
